- Tested on: SNB-19 CNS
- EXPERIMENT SUMMARY: NCI tumour cell line growth inhibition, 48 h
READOUT TYPE: TGI

CC(C)[C@@H]1CC[C@@H]2[C@@H]1[C@H](OC(=O)/C=C/c1ccccc1)[C@]1(C(C)C)C[C@@H](OC(=O)CO)[C@@]2(C)O1    10.8 µM
CCN(CC(COc1ccc2c(c1)[n+]([O-])nc(N)[n+]2[O-])OC(C)=O)C(C)=O (stereo not drawn)    > 100 µM
CC(C)=CCC[C@H](C)[C@H]1CC[C@@H](C)c2cc(O)c(C)cc21    31.6 µM
CCOP(=O)(OCC)/C(C#N)=C/c1c(C)[nH]c2ccccc12    > 100 µM
COC(=O)C1CCC(=O)N1C(c1ccc2c(c1)OCO2)c1ccc2c(c1)OCO2 (stereo not drawn)    > 100 µM
CSc1ccc2c(cc1=O)[C@@H](NC(=O)c1ccc(F)cc1)CCc1cc(O)c(O)c(O)c1-2    > 100 µM
O=C(Nc1c(Cl)cc([N+](=O)[O-])cc1Cl)/C(=N\Nc1cccc(Cl)c1)c1c(O)c2ccccc2oc1=O    > 100 µM
C=C1N(C)c2ccc(Cl)cc2C1(C)C    > 100 µM
CC(=O)O[C@H]1[C@@H](N2CCN(C)CC2)C[C@H]2[C@@H]3CC=C4C[C@@H](N5CCCC5)CC[C@]4(C)[C@H]3CC[C@@]21C    > 100 µM
S=C(N/N=C(/c1ccccc1)c1ccccn1)Nc1cccc(Cl)c1    15.3 µM

Query: Would you kindly share the measured TGI for COc1ccc(Nc2ncccc2C(=O)NCc2cn(Cc3cccc(Oc4ccccc4)c3)nn2)cc1 ?
Reply: > 100 µM

Query: What do we get for CC1(C)CC[C@]2(C(=O)O)CC[C@]3(C)C(=CC[C@@H]4[C@@]5(C)CC[C@H](OC6OC(CO)C(O)C(O)C6OC6OC(CO)C(O)C(O)C6O)C(C)(C)[C@@H]5CC[C@]43C)[C@@H]2C1 (stereo partly drawn) ?
Reply: 32.8 µM

Query: Subsequent entry: CC1(C)OC(=S)N(c2ccccc2)C12C=Cc1cc3ccccc3cc1O2 (stereo not drawn)
Reply: > 100 µM

Query: Please answer likewise for Cc1nc(C)c(N2CCN(C#N)CC2)c(=O)[nH]1
Reply: > 100 µM

Query: Next up: CCc1ccc(Nc2cc(C)nc3nc(C)nn23)cc1
Reply: > 100 µM

Query: Another: CC(NC(=O)C(N)CC(=O)O)NC(=O)N1CCCC1 (stereo not drawn)
Reply: > 100 µM

Query: Now consider Cc1cc2[nH]c3c(C#N)c(-c4ccccc4)c(CN4CCOCC4)c(=O)n3c2cc1C and answer again.
Reply: > 100 µM

Query: How about this compound: O=C1c2ccccc2C(=O)c2c1ccc1c2OCO1
Reply: > 100 µM

Query: Next compound up: N=c1ccn2c(n1)O[C@@H]1[C@@H](O)[C@H](CO)O[C@@H]12
Reply: > 100 µM

Query: # repeat for CC1=C(C(=O)Nc2ccccc2C)C(c2ccc(C3C(C(=O)Nc4ccccc4C)=CNC=C3C(=O)Nc3ccccc3C)cc2)C(C(=O)Nc2ccccc2C)=C(C)N1
Reply: 49.1 µM

Query: Continue with CCN(CC)c1nc(N(C)C)c2cc(OC)ccc2n1
Reply: > 100 µM

Query: # iterate: NC(N)=Nc1nc2ccccc2[nH]1
Reply: > 150 µg/mL

Query: Now consider CC1(C)OC(=O)C(=C2CC(c3ccccc3)c3ccccc32)C(=O)O1 (stereo not drawn) and answer again.
Reply: > 100 µM

Query: Moving on to ClC[Si]12OCCN(CCO1)CCO2
Reply: > 100 µM

Query: What do you get for CCN1CCN(C(=O)[C@]23CCC(C)(C)C[C@@H]2C2=CC[C@@H]4[C@@]5(C)C/C(=C/c6cccnc6)C(=O)C(C)(C)[C@@H]5CC[C@@]4(C)[C@]2(C)CC3)CC1 ?
Reply: 3.46 µM

Query: Now consider CP(C)(=S)P(C)(C)=S and answer again.
Reply: > 100 µM

Query: Then what about the compound Nc1c(C(=O)Nc2ccccc2)sc2nc3c(cc12)CCCC3 ?
Reply: > 100 µM

Query: Cool, now CC[C@]12CCCN3CC[C@]4(C(=C(C(=O)OC)C1)Nc1ccccc14)[C@@H]32
Reply: 66.2 µM

Query: Another compound: CCNc1ncnc2n[nH]nc12
Reply: > 100 µM

Query: Likewise for O=c1[nH]c(=O)n(C2CC(O)C(CO)O2)cc1C#Cc1cc(F)cc(F)c1 (stereo not drawn) ?
Reply: > 100 µM

Query: Same again, this time with CCOC(=O)NC(=O)c1cn(CCSCCOC(=O)NCCCCCCNC(=O)OCCSCCn2cc(C(=O)NC(=O)OCC)c(=O)[nH]c2=O)c(=O)[nH]c1=O
Reply: > 100 µM

Query: Do the same for C/C(=N\Nc1nc2ccccc2o1)c1ccncn1 please
Reply: > 100 µM
